Assay info: NCI Yeast Anticancer Drug Screen. Data for the mlh1 rad18 strain (AID 175)
Particulars: S. cerevisiae mlh1 rad18 strain growth inhibition; at 5.0 µM (retest, dose inferred, filed as 0.5)
The panel holds about 79,000 compounds, 15% with a hit somewhere; the sample as a whole holds those more often. Active and inactive are the calls of the source. Rule as the data show it: active = growth inhibition above about 70%; inactive = the rest.
Outcomes: T for active, F for inactive

| Compound | Assigned class |
| --- | --- |
| CCCc1cc(=O)oc2c3c(c4c(c12)OC(C)(C)CC4)O[C@H](C)[C@@H](C)[C@H]3O | F |
| Cn1c2ccccc2c2nnc(N/N=C/c3ccccn3)nc21 | F |
| O=C(CNC(=O)c1ccccc1)NNc1ccccc1 | F |
| O=C1/C(=C/c2ccccc2)CCCc2ccccc21 | F |
| C[n+]1c(-c2ccc(/C=C/C=N\NC(=O)c3ccc(C(=O)N/N=C\C=C\c4ccc(-c5cn6ccccc6[n+]5C)cc4)cc3)cc2)cn2ccccc21 | F |
| CCOP(=O)(C=C=C1CCC2[C@@H]3CCc4cc(OC)ccc4C3CC[C@]12C)OCC (some centres undefined) | F |
| CCCCN(CCCC)CCC(O)(c1ccc(OC)c2ccccc12)C(O)(CCN(CCCC)CCCC)c1ccc(OC)c2ccccc12 (centres undefined) | F |
| Cc1c2c(c(O)c3c(O)cccc13)C(=O)C1(O)C(=O)C(C(N)=O)C(O)C(N(C)C)C1C2 (centres undefined) | T |
| S=c1[nH]c2ccc(Cl)cc2s1 | F |
| O=C1CCCc2cc3c(nc21)C(=O)CCC3 | F |
| CCCN1C(=O)c2ccccc2C1=O | F |
| c1cc(NC2CCCCC2)ccc1CN1CCOCC1 | F |
| O=C(O)CCCc1ccc2c(c1Br)C=CC2 | F |
| COc1cc(N=Nc2cccc(S(N)(=O)=O)c2)c2ccccc2c1N | F |
| CCOC1=C(NC(C)=O)C(=O)c2ccccc2C1=O | F |
| CCN(CC)CCOC(=O)CCN1CC2CCC(CC2)C1 | F |
| Clc1ccccc1CN1COc2c(ccc3cccnc23)C1 | F |
| COc1ccc(C(=O)Oc2c(Br)cc(Br)cc2Br)cc1 | F |
| Nc1ccc(Sc2c3ccccc3nc3ccccc23)cc1 | F |
| CC1C=C(COC(=O)Nc2ccccc2)ON1c1ccccc1 (centres undefined) | F |
| C=CC(=O)NC(=O)Nc1ccc(Cl)cc1 | F |
| CC(/C=C/c1cccs1)=N\C(=S)NC(N)=S | F |
| CCCCCCC(O)C(CO)CCCCC (centres undefined) | F |
| O=S(=O)(O)SCCNCCCCCC1CCCCC1 | F |
| COc1ccc(NC(=O)CCC(NS(=O)(=O)c2ccc(C)cc2)C(=O)O)cc1 (centres undefined) | F |
| CC(C)c1ccc(S(=O)(=O)c2ccc([N+](=O)[O-])cc2[N+](=O)[O-])cc1 | T |
| CCC1OC(OC)C=CC1=O (centres undefined) | F |
| N#Cc1c(SCc2ccc(Cl)cc2)nsc1Nc1ccc(Cl)cc1 | T |
| COCCCNC(=S)N/N=C/c1cc(Cl)cc(Cl)c1O | F |
| CC1(C(Cl)(Cl)Cl)C=CC(O)(C#CC2(O)C=CC(C)(C(Cl)(Cl)Cl)C=C2)C=C1 (centres undefined) | T |
| O=C1CC(c2ccccc2)C(=O)N2C(=O)CC(c3ccccc3)C(=O)N12 (centres undefined) | F |
| O=C1C=CC(=O)N1C1CCCCC1 | T |
| COc1cccc(C2c3cc4c(cc3OC(Nc3ccccc3)C2C)OCO4)c1O (centres undefined) | F |
| COc1ccc2nc3cc(Cl)ccc3c(Nc3ccc(O)c(CNCCO)c3)c2c1 | F |
